Assay: The drug is tested on Z-020 corresponding to rabbit gut metagenome with ENA study accession number: PRJEB37062 and ENA sample accession number: ERS12561819 for biotransformation under anaerobic condition. The drug concentrations were measured over 9 timepoints collected between 0 and 24 hours of incubation by liquid-chromatography-coupled mass spectrometry (LC–MS); note: call rule not given here
Conditions: 2 µM
value.type: Bacterial Biotransformation

compound	result
CNC(=C[N+](=O)[O-])NCCSCc1csc(CN(C)C)n1 [NIZATIDINE]	Compound NOT metabolized
CCc1nc(N)nc(N)c1-c1ccc(Cl)cc1 [PYRIMETHAMINE]	Compound NOT metabolized
CC(O)(CS(=O)(=O)c1ccc(F)cc1)C(=O)Nc1ccc(C#N)c(C(F)(F)F)c1 (stereo not given) [BICALUTAMIDE]	Compound NOT metabolized
Cc1ccc(-c2cc(C(F)(F)F)nn2-c2ccc(S(N)(=O)=O)cc2)cc1 [CELECOXIB]	Compound NOT metabolized

* * *

Assay: The drug is tested on Z-005 corresponding to metagenome with ENA study accession number: PRJEB37062 and ENA sample accession number: ERS12561805 for biotransformation under anaerobic condition. The drug concentrations were measured over 9 timepoints collected between 0 and 24 hours of incubation by liquid-chromatography-coupled mass spectrometry (LC–MS)
Conditions: 2 µM
value.type: Bacterial Biotransformation

compound	result
Cc1ccccc1N1C(=O)c2cc(S(N)(=O)=O)c(Cl)cc2NC1C (configuration not stated)	Compound NOT metabolized
CN1C(C(=O)Nc2ccccn2)=C(O)c2sccc2S1(=O)=O	Compound NOT metabolized
O=c1n(CCCN2CCN(c3cccc(Cl)c3)CC2)nc2ccccn12	Compound NOT metabolized
Cc1ccc(S(=O)(=O)NC(=O)NN2CCCCCC2)cc1 [TOLAZAMIDE]	Compound metabolized
CCCCc1nc(Cl)c(CO)n1Cc1ccc(-c2ccccc2-c2nn[nH]n2)cc1	Compound NOT metabolized
Cc1nc2n(c(=O)c1CCN1CCC(c3noc4cc(F)ccc34)CC1)CCCC2O (configuration not stated)	Compound NOT metabolized
C[C@@H]1C[C@H]2[C@@H]3CCC4=CC(=O)C=C[C@]4(C)[C@@]3(F)[C@@H](O)C[C@]2(C)[C@@]1(O)C(=O)CO	Compound metabolized
CCCc1nc2c(C)cc(-c3nc4ccccc4n3C)cc2n1Cc1ccc(-c2ccccc2C(=O)O)cc1	Compound metabolized
CC(C(=O)O)c1ccc2c(c1)Cc1cccnc1O2 (configuration not stated)	Compound metabolized
CCCCC(=O)N(Cc1ccc(-c2ccccc2-c2nnn[nH]2)cc1)[C@H](C(=O)O)C(C)C	Compound NOT metabolized
CC(O)(CS(=O)(=O)c1ccc(F)cc1)C(=O)Nc1ccc(C#N)c(C(F)(F)F)c1 (configuration not stated) [BICALUTAMIDE]	Compound NOT metabolized
Nc1nc2ccc(OC(F)(F)F)cc2s1	Compound metabolized
CCC(=O)NCC[C@@H]1CCc2ccc3c(c21)CCO3	Compound NOT metabolized
COc1ccc2[nH]c([S+]([O-])Cc3ncc(C)c(OC)c3C)nc2c1 (configuration not stated)	Compound NOT metabolized
COc1ccccc1OCC(O)COC(N)=O (configuration not stated)	Compound NOT metabolized
CNC(=C[N+](=O)[O-])NCCSCc1csc(CN(C)C)n1	Compound NOT metabolized
O=C(O)COCCN1CCN(C(c2ccccc2)c2ccc(Cl)cc2)CC1 (configuration not stated)	Compound metabolized
Fc1ccc([C@@H]2CCNC[C@H]2COc2ccc3c(c2)OCO3)cc1	Compound metabolized
CCc1nn(CCCN2CCN(c3cccc(Cl)c3)CC2)c(=O)n1CCOc1ccccc1	Compound NOT metabolized
CCC(COC(=O)c1cc(OC)c(OC)c(OC)c1)(c1ccccc1)N(C)C.O=C(O)/C=C\C(=O)O (configuration not stated)	Compound NOT metabolized
COc1cc2c(c(OC)c1OC)-c1ccc(OC)c(=O)cc1[C@@H](NC(C)=O)CC2	Compound metabolized
COc1c2occc2cc2ccc(=O)oc12	Compound metabolized
Clc1ccc(Cn2c(CN3CCCC3)nc3ccccc32)cc1	Compound NOT metabolized
CCCCC1=NC2(CCCC2)C(=O)N1Cc1ccc(-c2ccccc2-c2nnn[nH]2)cc1	Compound metabolized
CS(=O)(=O)O.OC(CCN1CCCCC1)(c1ccccc1)c1ccccc1 [PRIDINOL METHANESULFONATE]	Compound NOT metabolized
CCOc1ccc(NC(C)=O)cc1	Compound NOT metabolized
Cc1nc(-c2ccc(OCC(C)C)c(C#N)c2)sc1C(=O)O	Compound metabolized

* * *

Conditions: human gut metagenome, 24 h, 2 µM

compound	Bacterial Biotransformation
CCCc1nc(C(C)(C)O)c(C(=O)OCc2oc(=O)oc2C)n1Cc1ccc(-c2ccccc2-c2nnn[nH]2)cc1	Compound NOT metabolized
CC(C)c1c(C(=O)Nc2ccccc2)c(-c2ccccc2)c(-c2ccc(F)cc2)n1CC[C@@H](O)C[C@@H](O)CC(=O)O	Compound NOT metabolized
CCOC(=O)[C@H](CCc1ccccc1)N[C@H]1CCc2ccccc2N(CC(=O)O)C1=O	Compound metabolized
CN1CCN(C(=O)O[C@H]2c3nccnc3C(=O)N2c2ccc(Cl)cn2)CC1	Compound NOT metabolized
Cc1nc2n(c(=O)c1CCN1CCC(c3noc4cc(F)ccc34)CC1)CCCC2O (configuration not stated)	Compound NOT metabolized
CCC1(c2ccc(N)cc2)CCC(=O)NC1=O (configuration not stated) [AMINOGLUTETHIMIDE]	Compound NOT metabolized
O=P(O)(O)O.c1ccc(CN(CC2=NCCN2)c2ccccc2)cc1 [ANTAZOLINE PHOSPHATE]	Compound NOT metabolized
CO[C@]12C[C@@H](COC(=O)c3cncc(Br)c3)CN(C)[C@@H]1Cc1cn(C)c3cccc2c13	Compound NOT metabolized
Cc1ccnc2c1NC(=O)c1cccnc1N2C1CC1	Compound NOT metabolized
CC(=O)OCC(=O)[C@@]1(O)[C@@H](C)C[C@H]2[C@@H]3CCC4=CC(=O)C=C[C@]4(C)[C@@]3(F)[C@@H](O)C[C@@]21C [BETAMETHASONE ACETATE]	Compound metabolized
CNC(=C[N+](=O)[O-])NCCSCc1ccc(CN(C)C)o1	Compound NOT metabolized
N#Cc1ccc(C(c2ccc(C#N)cc2)n2cncn2)cc1	Compound NOT metabolized
CCN(CC)CCNC(C(=O)OCCC(C)C)c1ccccc1.Cl.Cl (configuration not stated)	Compound metabolized
Cc1cc2c(cc1S(N)(=O)=O)S(=O)(=O)CCC2	Compound NOT metabolized
O=C1NCC2(CCN(CCc3ccccc3)CC2)O1 [FENSPIRIDE]	Compound NOT metabolized
Cc1nc(-c2ccc(OCC(C)C)c(C#N)c2)sc1C(=O)O	Compound metabolized
NC(CO)(CO)CO.O=C(c1ccccc1)c1ccc2n1CCC2C(=O)O (configuration not stated)	Compound metabolized

* * *

Conditions: human gut metagenome, 24 h, 2 µM

molecule	Bacterial Biotransformation
CC[C@@H](CO)NC(=O)[C@@H]1C=C2c3cccc4c3c(cn4C)C[C@H]2N(C)C1.O=C(O)/C=C\C(=O)O [METHYSERGIDE MALEATE]	Compound NOT metabolized
CN1C(C(=O)Nc2ccccn2)=C(O)c2sccc2S1(=O)=O [TENOXICAM]	Compound NOT metabolized
CCc1nc(N)nc(N)c1-c1ccc(Cl)cc1 [PYRIMETHAMINE]	Compound NOT metabolized
C[C@@H](CO)NC(=O)[C@@H]1C=C2c3cccc4[nH]cc(c34)C[C@H]2N(C)C1.O=C(O)/C=C\C(=O)O [ERGONOVINE MALEATE]	Compound metabolized
CC(C)NCC(O)c1ccc(NS(C)(=O)=O)cc1 (stereo not drawn) [SOTALOL]	Compound NOT metabolized
O=P(O)(O)O.c1ccc(CN(CC2=NCCN2)c2ccccc2)cc1 [ANTAZOLINE PHOSPHATE]	Compound NOT metabolized
CCN(CC)CC#CCOC(=O)C(O)(c1ccccc1)C1CCCCC1.Cl (stereo not drawn) [OXYBUTYNIN CHLORIDE]	Compound metabolized
CCCC1O[C@@H]2C[C@H]3[C@@H]4CCC5=CC(=O)C=C[C@]5(C)[C@H]4[C@@H](O)C[C@]3(C)[C@]2(C(=O)CO)O1 (stereo partly drawn) [BUDESONIDE]	Compound metabolized
CCCc1nc2c(C)cc(-c3nc4ccccc4n3C)cc2n1Cc1ccc(-c2ccccc2C(=O)O)cc1	Compound metabolized
C=CCN1CC[C@]23c4c5ccc(O)c4O[C@H]2C(=O)CC[C@@]3(O)[C@H]1C5 [NALOXONE]	Compound NOT metabolized
Cc1ccccc1N1C(=O)c2cc(S(N)(=O)=O)c(Cl)cc2NC1C (stereo not drawn) [METOLAZONE]	Compound metabolized
CCC(=O)NCC[C@@H]1CCc2ccc3c(c21)CCO3 [RAMELTEON]	Compound metabolized
CC(C)NCC(O)COc1ccc(COCCOC(C)C)cc1.CC(C)NCC(O)COc1ccc(COCCOC(C)C)cc1.O=C(O)/C=C/C(=O)O (stereo not drawn) [BISOPROLOL FUMARATE]	Compound metabolized
COc1ccc2c3c1O[C@H]1C[C@@H](O)C=C[C@@]31CCN(C)C2 [GALANTAMINE]	Compound NOT metabolized
CCN(CC)CCNC(C(=O)OCCC(C)C)c1ccccc1.Cl.Cl (stereo not drawn)	Compound metabolized
OC(Cn1cncn1)(Cn1cncn1)c1ccc(F)cc1F [FLUCONAZOLE]	Compound metabolized
CCN(CC)C(=O)/C(C#N)=C/c1cc(O)c(O)c([N+](=O)[O-])c1 [ENTACAPONE]	Compound metabolized
CN1C(=O)CCS(=O)(=O)C1c1ccc(Cl)cc1 (stereo not drawn) [CHLORMEZANONE]	Compound NOT metabolized
CCN(CC)CCOC(=O)C(Cc1cccc2ccccc12)CC1CCCO1.O=C(O)C(=O)O (stereo not drawn) [NAFRONYL OXALATE]	Compound metabolized
Br.CN(C)CCCC1(c2ccc(F)cc2)OCc2cc(C#N)ccc21 (stereo not drawn) [CITALOPRAM HYDROBROMIDE]	Compound metabolized
Cc1nc2n(c(=O)c1CCN1CCC(c3noc4cc(F)ccc34)CC1)CCCC2 [RISPERIDONE]	Compound metabolized
CS(=O)(=O)O.OC(CCN1CCCCC1)(c1ccccc1)c1ccccc1 [PRIDINOL METHANESULFONATE]	Compound NOT metabolized
NC(CO)(CO)CO.O=C(c1ccccc1)c1ccc2n1CCC2C(=O)O (stereo not drawn) [KETOROLAC TROMETHAMINE]	Compound metabolized
CCCCc1nc(Cl)c(CO)n1Cc1ccc(-c2ccccc2-c2nn[nH]n2)cc1 [LOSARTAN]	Compound metabolized
Cc1ccc(/C(=C\CN2CCCC2)c2ccccn2)cc1 [TRIPROLIDINE]	Compound NOT metabolized
CC(C)(C)NC[C@H](O)COc1ccccc1C1CCCC1.CC(C)(C)NC[C@H](O)COc1ccccc1C1CCCC1.O=S(=O)(O)O [PENBUTOLOL SULFATE]	Compound metabolized
O=C(CCCN1CCC(O)(c2ccc(Cl)cc2)CC1)c1ccc(F)cc1 [HALOPERIDOL]	Compound NOT metabolized
O=C1[C@H](CC[C@H](O)c2ccc(F)cc2)[C@@H](c2ccc(O)cc2)N1c1ccc(F)cc1 [EZETIMIBE]	Compound NOT metabolized
COC(=O)[C@H]1[C@H]2C[C@@H]3c4[nH]c5cc(OC)ccc5c4CCN3C[C@H]2C[C@@H](OC(=O)c2cc(OC)c(OC)c(OC)c2)[C@@H]1OC [RESERPINE]	Compound metabolized
C#C[C@]1(O)CC[C@H]2[C@@H]3CCC4=CC(=O)CC[C@@H]4[C@H]3CC[C@@]21CC [LEVONORGESTREL]	Compound metabolized
N#Cc1ccc(C(c2ccc(C#N)cc2)n2cncn2)cc1 [LETROZOLE]	Compound metabolized
Nc1ccc(/N=N/c2ccccc2)c(N)n1 [PHENAZOPYRIDINE]	Compound metabolized
NC(=O)N1c2ccccc2CC(=O)c2ccccc21 [OXCARBAZEPINE]	Compound metabolized
